# procedure-details: qHTS Validation assay for Inhibitors of Plasmodium falciparum Dd2 growth in vitro; note: nearly all actives have a fitted effect of over 70% in size
# recorded-conditions: P. falciparum Dd2 in RBCs, SYBR Green growth, 72 h; series mostly up to 28.7 µM
Among all 4,100 compounds or so, about 1,600 (39%) were called active. Another 25% or so got no clear call; they are omitted. Calls come from the whole dose curve; as a rule, active = well fitted inhibition curve with a large enough effect; inconclusive = small, poorly fitted or top-dose-only effect; inactive = no such curve, though single readings can be large or run the other way. Some of the results follow.
Thanks in advance; please answer with one of these: active, inactive

molecule=Oc1ccc(Br)cc1CN1CCN(c2ccccc2)CC1 discrete_label=active
molecule=COC(=O)C1=C(c2ccc(-c3ccccc3)c(F)c2)C[C@@H]2CC[C@H]1N2C(=O)NCc1cccc2ccccc12 discrete_label=active
molecule=Cc1nc(-c2ccco2)cc([C@H]2CN3CC[C@H]2C[C@@H]3CNCc2ccccc2)n1 discrete_label=active

Recorded test outcome, item COc1ccc(CC(=O)N2Cc3ccccc3CC3(CCCN3C)C2)cc1 (stereo unspecified) active

Could you please tell me the result logged for CCCCn1c(NS(=O)(=O)c2ccccc2)c(C(=O)OCC)c2nc3ccccc3nc21 in this assay? active

Hello, I am checking results. What call was entered for COc1cc2c(cc1Oc1cccc(N(C)C)c1)NC(=O)C21CCN(c2cnccn2)CC1 ? active

Hi, sorry to bother you, what did the test record for Cc1cc(O)c(CN2CC=C(c3ccccc3)CC2)cc1C(C)C ? active

Please indicate how the test categorized CCOc1ccc(CN2C(=O)c3ccccc3Sc3ccc(C(=O)N4CCC5(CC4)OCCO5)cc32)cc1 . active

Short answer needed: outcome of this test for Cc1ccc(CN2C3CCCC2CC(NC(=O)Nc2cccc(F)c2)C3)cc1 (stereo unspecified) ? active

Outcome logged for COc1cc2c(cc1OCC1CC1)NC(=O)C21CCN(C(=O)c2cccnc2)CC1 in this assay: inactive

Can you look up the reported call for COc1cc2c(cc1OCc1ccccc1)NC(=O)C21CCN(c2ccccn2)CC1 for me? active

Name the outcome recorded for COc1ccc2ccc(O)c(CN3CC=C(c4ccccc4)CC3)c2c1 in the assay. active

// param item: Cc1nc2c(=O)n(C)c(=O)nc-2n(C)n1 ; yields the recorded call active
